test system: NCI-H322M lung; test: NCI-60 one-dose screen, 48 h (100 = growth as untreated, 0 = no growth, -100 = all killed); details: 10 µM unless noted
About 83,000 compounds went through this panel and 20% of them were active in at least one assay; those are over-represented in the sample as a whole.
property-name: growth (%)

compound=CN1CCN(c2nc(-c3csc(-c4cccs4)n3)cc3ccccc23)CC1 experimental_target="NCI-H322M lung" readout_units=% reported_result=81
compound=CN(C)CCCCC(C(=O)CBr)(c1ccccc1)c1ccccc1 experimental_target="NCI-H322M lung" readout_units=% reported_result=74.5
compound=COc1ccc(-n2c(/C=C/c3ccc(O)c(OC)c3)cc(/C=C/c3ccc(O)c(OC)c3)nc2=O)cc1 experimental_target="NCI-H322M lung" readout_units=% reported_result=83.6
compound=CC(C)(C)n1cc(-c2ccnc(NCCCNS(=O)(=O)c3ccc(Cl)cc3)c2)c(-c2cccc(F)c2)n1 experimental_target="NCI-H322M lung" readout_units=% reported_result=98.5
compound="Cc1ccc(-c2nc3ccc(Cl)cc3c(=O)n2N2C(=O)CSC2c2ccccc2Cl)cc1 (stereo not given)" experimental_target="NCI-H322M lung" readout_units=% reported_result=86.7
compound=Cc1cc(C)nc(NC(N)=NCCc2ccccc2)n1 experimental_target="NCI-H322M lung" readout_units=% reported_result=52.1
compound="COc1ccc(OCC(CO)N2CCN(c3ccccc3)CC2)cc1 (stereo not given)" experimental_target="NCI-H322M lung" readout_units=% reported_result=115
compound="C/C(=N\\NC(=O)C(C)SC(C)C(=O)N/N=C(\\C)c1cccnc1)c1cccnc1 (stereo not given)" experimental_target="NCI-H322M lung" readout_units=% reported_result=104
compound=COC(=O)[C@@H]1[C@H]2C[C@H]3c4[nH]c5cc(OC)ccc5c4CCN3C[C@@H]2C[C@H](OC(=O)/C=C/c2ccnc(OC)c2)[C@H]1OC experimental_target="NCI-H322M lung" readout_units=% reported_result=83.2
compound=COc1ccccc1CNc1nc(N)nc2[nH]c3ccc(O)cc3c12 experimental_target="NCI-H322M lung" readout_units=% reported_result=61.5

====

tested on: SK-MEL-2 melanoma; assay: NCI-60 one-dose screen, 48 h; details: 10 µM unless noted
Compounds without any hit were thinned out: in the full panel of roughly 83,000, 20% have a hit. The source made the active and inactive calls. Rule for the calls: active = growth percent below 10; inactive = the rest.
Outcome codes: active, inactive

molecule=COc1cccc(-c2nn(-c3ccccc3)cc2-c2ccnc(NCCCNS(=O)(=O)c3cccc(F)c3)c2)c1 assigned_category=active
molecule="Cc1ccc(NC2CC(=O)N(c3c(C)cc(C)cc3C)C2=O)c(C)c1 (stereo not drawn)" assigned_category=inactive
molecule=Fc1ccc2c(c1)c(-c1nc(-c3c[nH]c4ncccc34)cs1)cn2CCCN1CCCCC1 assigned_category=inactive
molecule=O=C1c2cc3c(cc2-c2c1c1ccc(Cl)cc1c(=O)n2C[C@H](O)[C@@H](O)[C@H](O)CO)OCO3 assigned_category=active
molecule="CC(=O)NC1=C(C#N)C(c2ccccc2Cl)c2c(ccc3ccccc23)O1 (stereo not drawn)" assigned_category=inactive
molecule=Cn1c2c(c3ccc(Cl)cc31)-n1cccc1C2=O assigned_category=inactive
molecule="COc1ccc(OCC(CO)N2CCN(c3ccccc3)CC2)cc1 (stereo not drawn)" assigned_category=inactive
molecule=N#Cc1c(-c2ccco2)nc2c(c(-c3ccccc3)nn2-c2ccccc2)c1-c1ccc(O)cc1 assigned_category=inactive
